Target: EGFR TMLRCS (Homo sapiens, UniProt P00533, C797S/L858R/T790M)
Sequence (P00533 25-1210 T790M/C797S/L858R): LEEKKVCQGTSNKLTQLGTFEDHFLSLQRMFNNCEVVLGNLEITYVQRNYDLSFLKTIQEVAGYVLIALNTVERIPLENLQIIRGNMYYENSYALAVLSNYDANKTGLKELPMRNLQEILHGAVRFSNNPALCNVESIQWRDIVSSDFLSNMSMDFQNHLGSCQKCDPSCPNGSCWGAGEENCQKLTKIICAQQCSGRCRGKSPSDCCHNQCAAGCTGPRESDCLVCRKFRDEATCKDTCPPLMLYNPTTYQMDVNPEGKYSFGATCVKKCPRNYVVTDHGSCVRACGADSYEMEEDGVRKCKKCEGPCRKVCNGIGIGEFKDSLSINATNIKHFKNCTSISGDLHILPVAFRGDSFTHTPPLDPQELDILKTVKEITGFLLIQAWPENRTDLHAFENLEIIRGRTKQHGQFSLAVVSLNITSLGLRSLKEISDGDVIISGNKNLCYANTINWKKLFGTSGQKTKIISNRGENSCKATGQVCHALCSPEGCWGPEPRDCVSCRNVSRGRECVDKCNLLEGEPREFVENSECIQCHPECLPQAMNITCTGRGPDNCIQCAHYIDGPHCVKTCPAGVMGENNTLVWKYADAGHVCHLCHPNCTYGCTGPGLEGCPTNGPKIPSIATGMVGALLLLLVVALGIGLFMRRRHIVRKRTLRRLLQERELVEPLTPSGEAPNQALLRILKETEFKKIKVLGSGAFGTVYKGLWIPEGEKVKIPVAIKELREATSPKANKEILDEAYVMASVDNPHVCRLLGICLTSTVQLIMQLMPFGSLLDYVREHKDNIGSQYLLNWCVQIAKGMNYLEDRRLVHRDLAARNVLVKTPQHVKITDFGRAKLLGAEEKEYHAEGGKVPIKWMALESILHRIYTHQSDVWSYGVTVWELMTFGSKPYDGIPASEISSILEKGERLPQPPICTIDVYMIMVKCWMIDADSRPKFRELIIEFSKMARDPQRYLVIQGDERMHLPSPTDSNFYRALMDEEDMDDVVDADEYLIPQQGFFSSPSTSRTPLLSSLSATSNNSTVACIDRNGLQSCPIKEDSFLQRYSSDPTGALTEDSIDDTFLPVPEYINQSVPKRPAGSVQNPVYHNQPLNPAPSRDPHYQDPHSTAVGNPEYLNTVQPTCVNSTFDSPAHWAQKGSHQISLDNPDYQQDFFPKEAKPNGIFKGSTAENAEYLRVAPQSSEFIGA
Assay: HTRF Phospho EGFR TMLRCS Assay (Cellular)
Conditions: BaF3-TMLRCS cell line, 4 hours incubation, Phospho-EGFR HTRF readout
REPORTED PROPERTY: pIC50
The scale used: pIC50 is minus the common logarithm of the concentration in molar units.

COMPOUND	pIC50
O=C(Nc1nccs1)C(c1ncn2c1C[C@@H](F)C2)n1cc2c(Cl)cc(-c3ccc(CCN4CCC(CO)C4)cc3)c(Cl)c2n1 (mixture of isomers)	8.22
O=C(Nc1nccs1)C(c1ncn2c1C[C@@H](F)C2)n1cc2c(Cl)cc(-c3ccc(N4CCC(O)CC4)cc3)c(Cl)c2n1 (mixture of isomers)	8.40
CCc1cc(-c2cc(Cl)c3cn(C(C(=O)Nc4nccs4)c4ncn5c4C[C@@H](F)C5)nc3c2Cl)ccc1OCCN(C)C (stereo partly drawn)	8.10

From here, focus on the item given below.
Give the measured pIC50 of O=C(Nc1nccs1)C(c1ncn2c1C[C@@H](F)C2)n1cc2c(Cl)cc(-c3ccc(CN4CCC(O)CC4)cc3)c(Cl)c2n1 (mixture of isomers) .
8.30
